Measured values drawn from patent US20240132431A1 for this set.

Reported ASMS ratio (%) n = 1 values are given for each entry in this list.
# Target Or System: Bcl-2 protein (Recombinant Human Bcl-2 Protein) (Homo sapiens, UniProt P10415)
# Construct: purchased Novus NBP2-34889
# Sequence (P10415 whole entry): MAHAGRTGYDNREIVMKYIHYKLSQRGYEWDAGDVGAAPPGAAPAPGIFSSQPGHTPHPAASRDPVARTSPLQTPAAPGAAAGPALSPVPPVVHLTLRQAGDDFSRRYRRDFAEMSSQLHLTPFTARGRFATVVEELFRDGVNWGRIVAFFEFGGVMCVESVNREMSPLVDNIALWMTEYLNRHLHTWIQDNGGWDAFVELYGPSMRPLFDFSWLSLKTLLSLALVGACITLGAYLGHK
# Assay Explanation: Binding evaluation of mixture library compounds to Bcl-2 using AS-MS (affinity selection mass spectrometry)
# Measurement Parameters: AS-MS, mixture library, Bcl-2; replicate n = 1; ASMS Ratio(%)=(A−C)/B×100

- Compound: "CCOc1cccc(C#Cc2cc(C(=O)N3CCN(c4ccc(C(=O)NS(=O)(=O)CC56CC7CC(CC(C7)C5)C6)nn4)CC3)cc(C(F)(F)F)c2)c1 [B2A019-01]"
  Unit: "%"
  ASMS ratio (%) n = 1: 7.4
- Compound: "CCOc1cccc(-c2cc(CN3CCN(c4ccc(C(=O)N(CC)CC)cc4)CC3)cc(C(F)(F)F)c2)c1 [B4J061-01]"
  Unit: "%"
  ASMS ratio (%) n = 1: 1.6
- Compound: "CCOc1cncc(-c2cc(CN3CCN(c4ccc(C(=O)NS(=O)(=O)c5ccc(NCCSc6ccccc6)c([N+](=O)[O-])c5)cc4)CC3)cc(OC(F)(F)F)c2)c1 [B2Q064-01]"
  Unit: "%"
  ASMS ratio (%) n = 1: 8.6
- Compound: "CCOc1cncc(C#Cc2cncc(C(=O)N3CCN(c4ccc(C(=O)NS(C)(=O)=O)cc4)CC3)c2)c1 [B2I032-01]"
  Unit: "%"
  ASMS ratio (%) n = 1: "−1.6"
- Compound: "CCOc1cncc(-c2cc(C(=O)N3CCN(c4ccc(C(=O)NS(=O)(=O)CC56CC7CC(CC(C7)C5)C6)cc4)CC3)cc(C(C)(C)C)c2)c1 [B2A038-01]"
  Unit: "%"
  ASMS ratio (%) n = 1: 1.8
- Compound: "CCOc1cncc(-c2cc(CN3CCN(c4ccc(C(=O)N(CC)CC)nn4)CC3)cc(OC(F)(F)F)c2)c1 [B4J090-01]"
  Unit: "%"
  ASMS ratio (%) n = 1: 1.4
- Compound: "CCOc1cncc(-c2ccc(C(=O)N3CCN(c4ccc(C(=O)NS(C)(=O)=O)nn4)CC3)c3ccccc23)c1 [B2I014-01]"
  Unit: "%"
  ASMS ratio (%) n = 1: 1.0
- Compound: "CCOc1cncc(-c2ccc(CN3CCN(c4ccc(C(=O)NS(=O)(=O)c5ccc(NCCSc6ccccc6)c([N+](=O)[O-])c5)cc4)CC3)cc2C)c1 [B2Q048-01]"
  Unit: "%"
  ASMS ratio (%) n = 1: 61.6
- Compound: "CCOc1cncc(C#Cc2cc(C(=O)N3CCN(c4ccc(C(=O)NS(=O)(=O)CC56CC7CC(CC(C7)C5)C6)cc4)CC3)cc(C(F)(F)F)c2)c1 [B2A042-01]"
  Unit: "%"
  ASMS ratio (%) n = 1: 10.1
- Compound: "CCOc1cccc(-c2ccccc2CCC(=O)N2CCN(c3ccc(C(=O)NS(=O)(=O)CC45CC6CC(CC(C6)C4)C5)cc3)CC2)c1 [B2A033-01]"
  Unit: "%"
  ASMS ratio (%) n = 1: 1.7
- Compound: "CCOc1cncc(-c2cc(CN3CCN(c4ccc(C(=O)NS(=O)(=O)c5ccc(NCCSc6ccccc6)c([N+](=O)[O-])c5)nn4)CC3)cc(C(F)(F)F)c2)c1 [B2Q088-01]"
  Unit: "%"
  ASMS ratio (%) n = 1: 13.8
- Compound: "CCOc1cccc(C#Cc2cncc(C(=O)N3CCN(c4ccc(C(=O)NS(C)(=O)=O)cc4)CC3)c2)c1 [B2I031-01]"
  Unit: "%"
  ASMS ratio (%) n = 1: 0.0
- Compound: "CCOc1cncc(-c2ccc(C(C)N3CCN(c4ccc(C(=O)NS(=O)(=O)CC56CC7CC(CC(C7)C5)C6)cc4)CC3)c(F)c2)c1 (stereo not shown) [B2A100-01]"
  Unit: "%"
  ASMS ratio (%) n = 1: 0.0
